Tested on: femoral artery
assay.summary: Vasodilator activity, femoral artery (technique of perfused paw)
Type: in vivo
Parameters: key: O: no action; +: slight activity; ++: effect equal to half the effect of papaverine; +++: effect equal to that of papaverine; ++++: effect higher than that of papaverine
setup.conditions: intra-arterial, 30 mg/kg, anaesthetized dog, vs papaverine at same dose

molecule	VASODILATOR ACTIVITY
CC(NCCOc1ccccc1)C(O)c1ccc2c(c1)CCCS2 (stereo not shown)	+++
CC1Cc2cc(C(O)C(C)NCCOc3ccc(Cl)cc3)ccc2S1 (stereo not shown)	+++
CC(NCCCN1CCNC1=O)C(O)c1ccc2c(c1)CCCS2 (stereo not shown)	++
Cc1ccccc1N1CCN(C(C)C(O)c2ccc3c(c2)CCCS3)CC1 (stereo not shown)	+++
CC1Cc2cc(C(O)C(C)NCCCc3ccccc3)ccc2O1 (stereo not shown)	++
CC1CSc2ccc(C(O)C(C)NCCCCc3ccccc3)cc2C1 (stereo not shown)	+++
CC(NCCCN1CCCC1=O)C(O)c1ccc2c(c1)CCCS2 (stereo not shown)	0
CC(NCCCc1ccccc1)C(O)c1ccc2c(c1)CCCS2 (stereo not shown)	+++
COC(=O)CCCCCCCCCCNC(C)C(O)c1ccc2c(c1)CCCS2 (stereo not shown)	+++
CC1Cc2cc(C(O)C(C)NCCOc3ccc(Cl)cc3)ccc2O1 (stereo not shown)	+++
CC(NCCCCc1ccccc1)C(O)c1ccc2c(c1)CCO2 (stereo not shown)	++
Cc1ccc(CCCCNC(C)C(O)c2ccc3c(c2)CCCS3)cc1 (stereo not shown)	+++
CC(CCCc1ccccc1)NC(C)C(O)c1ccc2c(c1)CCS2 (stereo not shown)	++
CC(NCCCOc1ccccc1)C(O)c1ccc2c(c1)CCCS2 (stereo not shown)	+++
CCCCCCCCNC(C)C(O)c1ccc2c(c1)CCS2 (stereo not shown)	+++
Cc1ccc(OCCNC(C)C(O)c2ccc3c(c2)CCCS3)cc1 (stereo not shown)	+++
CC(NC1CC1)C(O)c1ccc2c(c1)CCCS2 (stereo not shown)	++
CC(NCCCCc1ccccc1)C(O)c1ccc2c(c1)SCCO2 (stereo not shown)	++++
CC1Cc2cc(C(O)C(C)NCCCCc3ccc(Cl)cc3)ccc2S1 (stereo not shown)	+++
CC(C)NC(C)C(O)c1ccc2c(c1)CCCCS2 (stereo not shown)	++
CC(NCCc1ccccc1)C(O)c1ccc2c(c1)CCCCS2 (stereo not shown)	+++
Cc1ccccc1N1CCN(C(C)C(O)c2ccc3c(c2)CCC(C)S3)CC1 (stereo not shown)	++
CCCCCCCCNC(C)C(O)c1ccc2c(c1)CCCC2 (stereo not shown)	+++
CC1Cc2cc(C(O)C(C)NCCCc3ccccc3)ccc2S1 (stereo not shown)	+++
CCC(NCCCCc1ccccc1)C(O)c1ccc2c(c1)CCS2 (stereo not shown)	+++
CC1Cc2cc(C(O)C(C)NCCOc3ccccc3)ccc2S1 (stereo not shown)	++
CC(NCCCSc1ccccc1)C(O)c1ccc2c(c1)CCS2 (stereo not shown)	+++
CC(NCCCc1ccccc1)C(O)c1ccc2c(c1)CCC2 (stereo not shown)	+++
CC(NCCCCc1ccc(Cl)cc1)C(O)c1ccc2c(c1)CCCS2 (stereo not shown)	++++
CC(=O)OC(c1ccc2c(c1)CCS2)C(C)NCCCCc1ccccc1 (stereo not shown)	+++
CC(NCCCCc1ccc(Cl)cc1)C(O)c1ccc2c(c1)CCS2 (stereo not shown)	++
CC(CCCc1ccccc1)NC(C)C(O)c1ccc2c(c1)CCCS2 (stereo not shown)	+++
CC(NCCCCc1ccc(Cl)cc1)C(O)c1ccc2c(c1)CCC2 (stereo not shown)	+++
CC(NC1CCCCCCC1)C(O)c1ccc2c(c1)CCCS2 (stereo not shown)	++
CC(NCCOc1ccc(Cl)cc1)C(O)c1ccc2c(c1)CCC2 (stereo not shown)	+++
CC(NCCc1ccccc1)C(O)c1ccc2c(c1)CCCS2 (stereo not shown)	++
CC1CCc2cc(C(O)C(C)NCCCCc3ccccc3)ccc2S1 (stereo not shown)	++++
CC(C)C(=O)OC(c1ccc2c(c1)CCS2)C(C)NCCCCc1ccccc1 (stereo not shown)	++++
CC(=O)Nc1ccc(OCCNC(C)C(O)c2ccc3c(c2)CCS3)cc1 (stereo not shown)	+++
CC(NCCCCc1ccccc1)C(O)c1ccc2c(c1)CCCC2 (stereo not shown)	+++
